# targetSystem: Glycogen synthase kinase-3 beta (Homo sapiens, UniProt P49841)
# Sequence (P49841 whole entry): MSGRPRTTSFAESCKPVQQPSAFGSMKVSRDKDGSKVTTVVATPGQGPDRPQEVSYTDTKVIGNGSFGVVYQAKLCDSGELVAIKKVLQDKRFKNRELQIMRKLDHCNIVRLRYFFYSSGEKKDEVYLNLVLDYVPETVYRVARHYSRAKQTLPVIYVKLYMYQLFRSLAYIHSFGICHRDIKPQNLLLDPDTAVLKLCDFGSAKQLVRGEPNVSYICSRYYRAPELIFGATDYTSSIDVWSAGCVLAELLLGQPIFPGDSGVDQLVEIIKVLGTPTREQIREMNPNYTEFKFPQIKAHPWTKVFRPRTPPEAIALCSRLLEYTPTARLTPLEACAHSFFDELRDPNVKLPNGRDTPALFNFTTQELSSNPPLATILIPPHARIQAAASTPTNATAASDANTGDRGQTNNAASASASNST
# testName: concentration-response blocking of human GSK3B – biochemical, luminescence, cell-free homogeneous, retest, dose response (AID 434954)
Each entry below carries its reported EC50.

>>> print(df.to_string())
                                   compound  datavalue
0  CCOc1cc(C2Nc3ccccc3N=C3CC(C)(C)CC(=O)C32)ccc1O (stereo not given)   > 300 µM

Problem: # EC50 lookup, item C[C@]12C=CC(=O)C=C1CC[C@@H]1C2C(O)C[C@@]2(C)C1CC[C@]2(O)C(=O)COC(=O)CCC(=O)O (stereo not given in full)
Result: > 300 µM

Problem: Follow-up item: O=C1CCCC2=Nc3ccccc3NC(c3cccs3)C12 (stereo not given)
Result: > 300 µM

Problem: Follow-up item: COc1ccc(Nc2nc(N)c([N+](=O)[O-])c(N3CCOCC3)n2)cc1
Result: 13.8 µM

Problem: Follow-up item: Nc1nonc1-n1nnc(C(=O)NN=Cc2ccccc2Cl)c1CN1CCOCC1
Result: 60.5 µM

Problem: Follow-up item: COc1ccc(-c2nn(-c3ccccc3)cc2C#N)cc1
Result: > 300 µM

Problem: Follow-up item: CN(Cc1c(C(=O)NN=Cc2ccccc2F)nnn1-c1nonc1N)c1ccccc1
Result: > 300 µM

Problem: Follow-up item: COc1ccc(-c2cc(=O)oc3c(C)c(O)ccc23)cc1
Result: > 300 µM

Problem: Follow-up item: CCCN(C(=O)CCNC(=O)Cn1cnc2ccccc2c1=O)c1cccc(Cl)c1
Result: > 300 µM

Problem: Follow-up item: Cc1ccc(OCCn2c(S)nc3c(N)ncnc32)cc1
Result: > 300 µM

Origin of measurements: BindingDB's records for doi:10.7270/Q2TX3CTT
